- test-name: Induction of mitochondrial uncoupling in rat L6 cells assessed as increase in oxygen consumption rate incubated for 90 mins by Seahorse XF analyzer based assay
- Type: mitochondria, Mitochondria
Reported EC50 is given for each of the following molecules.
# value in µM; strip the unit string

In [3]: df
Out[3]:
                  compound_structure_string  unit_annotation  observed_measurement
0      COc1cc(OC(F)(F)F)ccc1Nc1nc2nonc2nc1O               µM                   3.8
1        Oc1nc2nonc2nc1Nc1cccc(OC(F)(F)F)c1               µM                   5.1
2          Cc1cc(C)c(Nc2nc3nonc3nc2O)c(C)c1               µM                   113
3  O=[N+]([O-])c1cc(Nc2nc3nonc3nc2O)ccc1OC(F)(F)F               µM                  53.5
4        Cc1ccc(C(F)(F)F)cc1Nc1nc2nonc2nc1O               µM                  32.8
5            CCCCOc1cccc(Nc2nc3nonc3nc2O)c1               µM                   2.3
6                   CCCCCCCCNc1nc2nonc2nc1O               µM                   3.4
7    Oc1nc2nonc2nc1Nc1ccc(OCC(F)(F)F)c(F)c1               µM                  10.4

What value of EC50 has been reported for the following molecule? CC(=O)c1ccc(Nc2nc3nonc3nc2O)cc1
93.7

What value of EC50 has been reported for the following molecule? CCc1cccc(Nc2nc3nonc3nc2O)c1
25.2

What value of EC50 has been reported for the following molecule? Cc1ccc(Nc2nc3nonc3nc2O)cc1C
3

What value of EC50 has been reported for the following molecule? Oc1nc2nonc2nc1Nc1ccc(Cl)cc1
11.7

What value of EC50 has been reported for the following molecule? Oc1nc2nonc2nc1Nc1ccc(OCc2ccccc2)cc1
2.4

----------
- test-name: Half life in Swiss albino mouse at 10 mg/kg, po administered via gavage by LC/MS-MS analysis
- Format: ADME, organism-based
- experimental-parameters: in vivo
endpoint-label: half-life (h)
# value in h; strip the unit string

What value of half-life has been reported for the following molecule? Oc1nc2nonc2nc1NC12CC3CC(CC(C3)C1)C2
1.1

----------
- test-name: Drug distribution in C57BL/6 mouse kidney at 10 mg/kg, po administered via gavage measured after 1 hr by LC/MS-MS analysis
- Type: ADME, organism-based
- experimental-parameters: read-out: Drug uptake
endpoint-label: concentration at 1 h (ng/g)
# value in ng/g; strip the unit string

What value of concentration at 1 h has been reported for the following compound? Oc1nc2nonc2nc1Nc1ccc(OC(F)(F)F)cc1
9200

----------
- test-name: Drug distribution in C57BL/6 mouse liver at 10 mg/kg, po administered via gavage measured after 1 hr by LC/MS-MS analysis
- Type: ADME, organism-based
- experimental-parameters: read-out: Drug uptake
endpoint-label: concentration at 1 h (ng/g)
# value in ng/g; strip the unit string

What value of concentration at 1 h has been reported for the following molecule? Oc1nc2nonc2nc1Nc1ccc(OC(F)(F)F)cc1
15800

----------
- test-name: Cmax in C57BL/6 mouse at 10 mg/kg, po administered via gavage by LC/MS-MS analysis
- Type: ADME, organism-based
- Set-up: dose 10 mg/kg, route oral
- experimental-parameters: in vivo
endpoint-label: Cmax (µM)
# value in µM; strip the unit string

Some compounds with known Cmax results, for comparison:
>>> df
           compound_structure_string  endpoint_label  observed_measurement
0     CCCCOc1ccc(Nc2nc3nonc3nc2O)cc1            Cmax                   3.4
1      CCCCc1ccc(Nc2nc3nonc3nc2O)cc1            Cmax                    12
2  CC(C)(C)c1ccc(Nc2nc3nonc3nc2O)cc1            Cmax                  22.3

What value of Cmax has been reported for the following compound? Oc1nc2nonc2nc1Nc1ccc(OC(F)(F)F)cc1
80.9

What value of Cmax has been reported for the following compound? Oc1nc2nonc2nc1Nc1ccc2ccccc2c1
12.5

----------
- test-name: Half life in C57BL/6 mouse at 10 mg/kg, po administered via gavage by LC/MS-MS analysis
- Format: ADME, organism-based
- experimental-parameters: in vivo
endpoint-label: half-life (min)
# value in min; strip the unit string

       compound_structure_string  observed_measurement
0  Oc1nc2nonc2nc1Nc1ccc2ccccc2c1                    24

What value of half-life has been reported for the following compound? CCCCOc1ccc(Nc2nc3nonc3nc2O)cc1
18

What value of half-life has been reported for the following compound? Oc1nc2nonc2nc1Nc1ccc(OC(F)(F)F)cc1
342

What value of half-life has been reported for the following compound? CCCCc1ccc(Nc2nc3nonc3nc2O)cc1
42

What value of half-life has been reported for the following compound? CC(C)(C)c1ccc(Nc2nc3nonc3nc2O)cc1
36

----------
- test-name: Induction of mitochondrial uncoupling in rat L6 cells assessed as increase in oxygen consumption rate incubated for 90 mins by Seahorse XF analyzer based assay
- Format: mitochondria, Mitochondria
EC50 under 4 µM gets YES, anything at or over 4 µM gets NO.

These recorded examples may help you get a feel for the data.
                             compound  label_class
0  Oc1nc2nonc2nc1Nc1ccc(OC(F)(F)F)cc1           NO
1    CCCCc1ccc(Nc2nc3nonc3nc2O)c(F)c1          YES
2         Cc1ccc(CNc2nc3nonc3nc2O)cc1           NO
3         CCc1ccc(Nc2nc3nonc3nc2O)cc1           NO

Please indicate whether the reported EC50 of Cc1cccc(C)c1Nc1nc2nonc2nc1O is strictly below 4 µM.
NO

Please indicate whether the reported EC50 of Oc1nc2nonc2nc1NCCc1ccccc1 is strictly below 4 µM.
NO

----------
- test-name: Induction of mitochondrial uncoupling in rat L6 cells assessed as increase in oxygen consumption rate incubated for 90 mins by Seahorse XF analyzer based assay
- Assay type: mitochondria, Mitochondria
endpoint-label: EC50 (µM)
# value in µM; strip the unit string

In [3]: df
Out[3]:
                                   compound  unit_annotation  observed_measurement
0       Oc1nc2nonc2nc1Nc1ccc(OC(F)(F)F)cc1F               µM                   2.3
1  Oc1nc2nonc2nc1Nc1ccc(OCC(F)(F)F)c(C(F)(F)F)c1               µM                     4
2         Oc1nc2nonc2nc1Nc1cccc(C(F)(F)F)c1               µM                  13.3
3                Oc1nc2nonc2nc1Nc1cccc(F)c1               µM                  31.2
4             Oc1nc2nonc2nc1Nc1cc(F)cc(F)c1               µM                  23.4

What value of EC50 has been reported for the following compound? Oc1nc2nonc2nc1Nc1ccc(OCCCC(F)(F)F)c(C(F)(F)F)c1
2.1

What value of EC50 has been reported for the following compound? CC(C)(C)c1ccc(Nc2nc3nonc3nc2O)cc1
3.9

What value of EC50 has been reported for the following compound? CCCCOc1ccc(Nc2nc3nonc3nc2O)cc1
3.7

What value of EC50 has been reported for the following compound? Oc1nc2nonc2nc1Nc1cccc(F)c1F
9.7

What value of EC50 has been reported for the following compound? CCCCCc1ccc(Nc2nc3nonc3nc2O)c(F)c1
1.5

What value of EC50 has been reported for the following compound? Oc1nc2nonc2nc1Nc1ccccc1Cl
6.3

What value of EC50 has been reported for the following compound? Oc1nc2nonc2nc1Nc1cc(C(F)(F)F)ccc1F
5.1

What value of EC50 has been reported for the following compound? Oc1nc2nonc2nc1Nc1ccccc1
66.7

What value of EC50 has been reported for the following compound? Fc1cccc(Nc2nc3nonc3nc2Nc2ccccc2F)c1
0.19

What value of EC50 has been reported for the following compound? Oc1nc2nonc2nc1Nc1cccc(OCc2ccc(C(F)(F)F)cc2)c1
3

----------
- test-name: Induction of mitochondrial uncoupling in rat L6 cells assessed as increase in oxygen consumption rate incubated for 90 mins by Seahorse XF analyzer based assay
- Type: mitochondria, Mitochondria
Reported EC50 is given for each of the following compounds.
Give your result as the value with the unit written after it.

Some compounds with known EC50 results, for comparison:
>>> print(df.to_string())
                                   compound  observed_measurement
0  CC(Nc1nc2nonc2nc1O)C12CC3CC(CC(C3)C1)C2 (stereo unspecified)                4.9 µM
1       CC(C)(C#N)c1ccc(Nc2nc3nonc3nc2O)cc1               35.7 µM
2            CCc1ccc(Nc2nc3nonc3nc2O)c(F)c1                6.7 µM

What value of EC50 has been reported for the following compound? Oc1nc2nonc2nc1Nc1ccc(OCCCC(F)(F)F)c(F)c1
4.2 µM

What value of EC50 has been reported for the following compound? Oc1nc2nonc2nc1Nc1ccc(S(F)(F)(F)(F)F)cc1
3.9 µM

What value of EC50 has been reported for the following compound? Oc1nc2nonc2nc1Nc1cc(C(F)(F)F)cc(C(F)(F)F)c1
4.5 µM
